Measured residual activity by item
- measured.target: MAP kinase-activated protein kinase 5 (Homo sapiens)
- study.conditions: at 10 µM
test.readout: residual activity

[[record]]
input_smiles = "CN(C)c1ccc(/C=C2\\C(=O)Nc3ccccc32)cc1"
reading = "65%"

[[record]]
input_smiles = "Cc1nc(-c2ccccc2)c(-c2ccncc2)o1"
reading = "115%"

[[record]]
input_smiles = "Cc1cccc(-c2[nH]c(C(C)(C)C)nc2-c2ccc3c(c2)OCO3)n1"
reading = "77%"

[[record]]
input_smiles = "O=C(Nc1cccc(Nc2nccc(Nc3cccc(C(F)(F)F)c3)n2)c1)C1CC1"
reading = "65%"

[[record]]
input_smiles = "COc1ccc(S(=O)(=O)N(CCO)c2ccccc2CN(C)C/C=C/c2ccc(Cl)cc2)cc1"
reading = "53%"

[[record]]
input_smiles = "Oc1ccc(Nc2nc(-c3ccc(Cl)cc3)cs2)cc1"
reading = "69%"


====

- measured.target: Inhibitor of nuclear factor kappa-B kinase subunit beta (Homo sapiens)
- study.conditions: at 10 µM
test.readout: residual activity (%)

[[record]]
molecule = "Cc1nc2cc3nc(-c4cccs4)cnc3cc2n1C"
reading = 106

[[record]]
molecule = "CN(C)c1ccc(/C=C2\\C(=O)Nc3ccccc32)cc1"
reading = 93

[[record]]
molecule = "O=C1Nc2ccccc2/C1=C1/Nc2ccccc2/C1=N\\OCCC(O)CO (stereo not given)"
reading = 66

[[record]]
molecule = "O=C(Nc1cccc(Nc2nccc(Nc3cccc(C(F)(F)F)c3)n2)c1)C1CC1"
reading = 52

[[record]]
molecule = "COc1ccc(C(=O)Nc2sc3c(c2C(N)=O)CCCC3)cc1OC"
reading = 88

[[record]]
molecule = "CC[n+]1c(/C=C/N(C)c2ccccc2)n(-c2ccccc2)c2ccc(-c3nc4ccccc4s3)cc21"
reading = 102

[[record]]
molecule = "CCOc1cc2ncnc(Nc3cccc(Br)c3)c2cc1OCC"
reading = 82

[[record]]
molecule = "O=c1c2ccccc2[nH]c(=S)n1CCN1CCC(=C(c2ccc(F)cc2)c2ccc(F)cc2)CC1"
reading = 105

[[record]]
molecule = "N#C/C(=C(\\N)Sc1ccc(N)cc1)c1ccccc1C(F)(F)F"
reading = 109

[[record]]
molecule = "COc1cc2ncc(-c3ccccc3)nc2cc1OC"
reading = 95

[[record]]
molecule = "O=C1c2ccccc2-[n+]2ccc3c([nH]c4ccccc43)c21"
reading = 97

[[record]]
molecule = "CCC(=O)Nc1ccc2ncnc(Nc3cccc(Br)c3)c2c1"
reading = 97

[[record]]
molecule = "Cc1ccc(S(=O)(=O)/C=C/C#N)cc1"
reading = 107

[[record]]
molecule = "CCN(CC)C(=O)c1ccc(Nc2nc(OCC3CCCCC3)c3nc[nH]c3n2)cc1"
reading = 69

[[record]]
molecule = "Oc1n[nH]c2nnc(-c3c(-c4ccccc4)nn4ccccc34)cc12"
reading = 93


====

- measured.target: Serine/threonine-protein kinase Sgk2 (Homo sapiens)
- Sequence (whole entry): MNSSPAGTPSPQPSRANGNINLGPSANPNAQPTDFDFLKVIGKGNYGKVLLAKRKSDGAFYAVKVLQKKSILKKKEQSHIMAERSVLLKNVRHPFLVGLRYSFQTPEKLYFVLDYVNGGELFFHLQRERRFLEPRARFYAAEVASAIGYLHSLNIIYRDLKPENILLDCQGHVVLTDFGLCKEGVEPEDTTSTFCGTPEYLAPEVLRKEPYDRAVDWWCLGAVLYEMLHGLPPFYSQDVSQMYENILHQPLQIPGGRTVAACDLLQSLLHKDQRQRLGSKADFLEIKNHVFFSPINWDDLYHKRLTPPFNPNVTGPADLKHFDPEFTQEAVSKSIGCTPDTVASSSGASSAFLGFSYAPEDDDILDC
- study.conditions: at 1 µM
test.readout: residual activity (%)

[[record]]
compound = "COc1cc2ncc(-c3ccccc3)nc2cc1OC"
test_readout = "residual activity"
reading = 96

[[record]]
compound = "O=C1NC(=O)c2cc(Nc3ccc(F)cc3)c(Nc3ccc(F)cc3)cc21"
test_readout = "residual activity"
reading = 97

[[record]]
compound = "O=C1NC(=O)/C(=C\\c2ccc3nccnc3c2)S1"
test_readout = "residual activity"
reading = 103

[[record]]
compound = "COc1cc2ncnc(Nc3ccc(O)c(Br)c3)c2cc1OC"
test_readout = "residual activity"
reading = 62

[[record]]
compound = "O=Nc1c(-c2c(O)[nH]c3ccccc23)[nH]c2ccccc12"
test_readout = "residual activity"
reading = 61

[[record]]
compound = "COc1ccc(C(=O)Nc2sc3c(c2C(N)=O)CCCC3)cc1OC"
test_readout = "residual activity"
reading = 99

[[record]]
compound = "O=c1c2ccccc2[nH]c(=S)n1CCN1CCC(=C(c2ccc(F)cc2)c2ccc(F)cc2)CC1"
test_readout = "residual activity"
reading = 90

[[record]]
compound = "O=C1Nc2ccccc2/C1=C1/Nc2ccccc2/C1=N\\OCCC(O)CO (stereo unspecified)"
test_readout = "residual activity"
reading = 63

[[record]]
compound = "CNc1cc2c(Nc3cccc(Br)c3)ncnc2cn1"
test_readout = "residual activity"
reading = 111

[[record]]
compound = "COc1cccc(-c2cc(=O)c3ccccc3o2)c1N"
test_readout = "residual activity"
reading = 89

[[record]]
compound = "Nc1n[nH]c2nnc(-c3c(-c4ccccc4)nn4ccccc34)cc12"
test_readout = "residual activity"
reading = 87

